systemName: Somatostatin Receptor 2 (SSTR2) (Homo sapiens)
Sequence (P30874 whole entry, species assumed): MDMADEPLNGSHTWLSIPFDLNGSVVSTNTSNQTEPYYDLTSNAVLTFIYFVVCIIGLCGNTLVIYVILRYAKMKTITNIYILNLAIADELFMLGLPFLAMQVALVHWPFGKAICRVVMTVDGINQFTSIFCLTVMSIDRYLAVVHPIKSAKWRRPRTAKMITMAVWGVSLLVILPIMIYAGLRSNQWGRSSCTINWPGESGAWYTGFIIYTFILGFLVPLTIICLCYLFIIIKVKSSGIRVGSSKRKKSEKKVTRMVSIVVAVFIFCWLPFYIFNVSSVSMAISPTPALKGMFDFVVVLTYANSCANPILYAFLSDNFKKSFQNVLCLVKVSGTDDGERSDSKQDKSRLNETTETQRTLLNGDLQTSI
testName: Biochemical Assay for Activation of Somatostatin Receptor 2 (SSTR2), Cisbio HTRF cAMP assay
conditionSummary: average pEC50; HTRF cAMP assay in stably-transfected cell line expressing SSTR2; cells incubated with compounds for 1-2h
Protocol: Biochemical Assay for Activation of Somatostatin Receptor 2 (SSTR2) Agonistic activation of SSTRs leads to an […] production of intracellular cAMP levels. Cisbio's homogeneous time-resolved fluorescence (HTRF) cAMP assay was used to measure cAMP concentration in an high-throughput format. Increase in intracellular cAMP concentrations was measuring using a stably-transfected cell line expressing SSTR2. […] The average pEC50 was determined for the test compounds.
pEC50: −log10 of the molar value.
Collected pEC50 values appear next to each entry.

structuresmilesstring=O=C1NCCNC2CCN(CC2)c2c(-c3cc(F)cc(F)c3)cnc3ccc(cc23)-c2cccnc21 systemname="Somatostatin Receptor 2 (SSTR2) (Homo sapiens)" readoutvalue="< 5.00"

Task: Reported pEC50 for `CNCCCn1c(=O)n(-c2ccc(F)c(F)c2)c(=O)c2cncc(-c3cc(F)cc(F)c3)c21` : what is it?
Result: < 5.00

Task: # repeat for `CO[C@@H]1CN(c2c(-c3cc(C)cc(F)c3)cnc3[nH]c(-c4ccc5[nH]c(=O)[nH]c5c4)nc23)CC[C@H]1N`
Result: < 5.00
